Just for reference, ChEMBL document CHEMBL2375230 is where these values come from.

assay: Solubility of the compound; type: physicochemical
Quantity measured: solubility (µM)
The reply should contain only the number, in µM.

Smiles entry	Recorded result
Cc1nc(-c2ccccn2)nc(NCCc2ccccc2)c1Cl	90

Query: solubility; subject: `Cc1nc(-c2ccc(Cl)cn2)nc(NC[C@@H](NCCCCc2ccccc2)c2ccccc2)c1Cl` 40

Continue with `Cc1nc(-c2ccccn2)nc(NCCNc2ccc(C(F)(F)F)cn2)c1Cl` 40

----------
molecular target: Methionine aminopeptidase 1 (Homo sapiens); experiment: Inhibition of human methionine aminopeptidase 1 in presence of Co2+
Lab note: compare EC50 with 900 nM, writing met if less and not met if equal or more.

Smiles entry	Cat
Clc1nc(-c2ccccn2)nc2ccccc12	not met

Below 900 nM on EC50? Entry `c1ccc2[nH]c(-c3cscn3)nc2c1` not met

For `c1ccc(-c2cc(N3CCOCC3)c3ccccc3n2)nc1` then? met

Next molecule up: `c1ccc(NCCNc2nc(-c3ccccn3)nc3ccccc23)cc1` not met
